Test system: 156681-154-R-J1-PDC complex spheroid viability
PROTOCOL_DETAILS: Anticancer human tumor 156681-154-R-J1-PDC patient-derived melanoma cell line growth inhibition [CLK]; active means viability on the fitted dose curve at most 10% of control; inactive means the rest
RUN_PARAMETERS: second compound 1 µM; first compound 0.1 µM
Labels: 1 = active, -1 = inactive

MOLECULE	CATEGORY_LABEL
CC(CO)NC(=O)c1cc(-c2ccc(Cl)cc2)nn(-c2cnn(C)c2)c1=O (stereo not drawn) + CN1CCN(c2cc(C(=O)Nc3cc4cc(-c5cnn(C)c5)ccc4cn3)ccn2)CC1	1
COC1C=CCC(C)C(C)S(=O)(=O)NC(=O)c2ccc3c(c2)N(CC2CCC21)CC1(CCCc2cc(Cl)ccc21)CO3 (stereo not drawn) + CN1CCN(c2cc(C(=O)Nc3cc4cc(-c5cnn(C)c5)ccc4cn3)ccn2)CC1	1
COc1ccc([C@@H](O)c2cc(-c3ncnc4cc(N5CCOCC5)ccc34)c(F)cc2Cl)nn1 + CNC(=O)c1ccc(Nc2nc(OC3CCCC3)c3c(-c4ccc5nc(C)oc5c4)c[nH]c3n2)c(OC)c1	-1

====

Test system: 156681-154-R-J1-PDC complex spheroid viability
PROTOCOL_DETAILS: Anticancer human tumor 156681-154-R-J1-PDC cell line growth inhibition [CLK]; active means viability on the fitted dose curve at most 10% of control; inactive means the rest;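 further: spheroids exposed to the agents for seven days; 100% = DMSO vehicle control viability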
RUN_PARAMETERS: second compound 10 µM; first compound 0.000949 µM
Labels: yes (1) for active, no (0) for inactive

MOLECULE	CATEGORY_LABEL
CC(C)CC(NC(=O)C(Cc1ccccc1)NC(=O)c1cnccn1)B(O)O (centres undefined) + CN1CCN(c2cc(C(=O)Nc3cc4cc(-c5cnn(C)c5)ccc4cn3)ccn2)CC1	yes (1)
C=CC(=O)Nc1cc(Nc2nccc(-c3cn(C)c4ccccc34)n2)c(OC)cc1N(C)CCN(C)C + CNC(=O)c1ccc(Nc2nc(OC3CCCC3)c3c(-c4ccc5nc(C)oc5c4)c[nH]c3n2)c(OC)c1	no (0)
C=CC(=O)Nc1cc(Nc2nccc(-c3cn(C)c4ccccc34)n2)c(OC)cc1N(C)CCN(C)C + CN1CCN(c2cc(C(=O)Nc3cc4cc(-c5cnn(C)c5)ccc4cn3)ccn2)CC1	yes (1)
CC(C)CC(NC(=O)C(Cc1ccccc1)NC(=O)c1cnccn1)B(O)O (centres undefined) + CNC(=O)c1ccc(Nc2nc(OC3CCCC3)c3c(-c4ccc5nc(C)oc5c4)c[nH]c3n2)c(OC)c1	no (0)

====

In this section we review reported viability, T/C values for a set of molecules.
Test system: 156681-154-R-J1-PDC complex spheroid viability
PROTOCOL_DETAILS: Anticancer human tumor 156681-154-R-J1-PDC cell line growth inhibition [CLK];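 further: spheroids exposed to the agents for seven days; 100% = DMSO vehicle control viability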
RUN_PARAMETERS: second compound 10 µM; first compound 0.316 µM; stronger effect = lower value
MEASURED_QUANTITY: viability, T/C (%)

MOLECULE	MEASURED_NUMBER
CC(Nc1ccc2c(c1)OCCn1cc(N3C(=O)OCC3C(F)F)nc1-2)C(N)=O (stereo not given) + CN1CCN(c2cc(C(=O)Nc3cc4cc(-c5cnn(C)c5)ccc4cn3)ccn2)CC1	1.26
CC1(C)CCC(CN2CCN(c3ccc(C(=O)NS(=O)(=O)c4ccc(NCC5CCOCC5)c([N+](=O)[O-])c4)c(Oc4cnc5[nH]ccc5c4)c3)CC2)=C(c2ccc(Cl)cc2)C1 + CN1CCN(c2cc(C(=O)Nc3cc4cc(-c5cnn(C)c5)ccc4cn3)ccn2)CC1	2.9
O=C(c1cc(Cc2n[nH]c(=O)c3ccccc23)ccc1F)N1CCN(C(=O)C2CC2)CC1 + CNC(=O)c1ccc(Nc2nc(OC3CCCC3)c3c(-c4ccc5nc(C)oc5c4)c[nH]c3n2)c(OC)c1	38.6
COc1c(OCCCN2CCOCC2)ccc2c3n(c(=NC(=O)c4cnc(N)nc4)nc12)CCN3 + CN1CCN(c2cc(C(=O)Nc3cc4cc(-c5cnn(C)c5)ccc4cn3)ccn2)CC1	0.81
CCN1CCN(Cc2ccc(Nc3ncc(F)c(-c4cc(F)c5nc(C)n(C(C)C)c5c4)n3)nc2)CC1 + CN1CCN(c2cc(C(=O)Nc3cc4cc(-c5cnn(C)c5)ccc4cn3)ccn2)CC1	0.5
C=CC(=O)N1CCN(c2nc(=O)n(-c3c(C)ccnc3C(C)C)c3nc(-c4c(O)cccc4F)c(F)cc23)C(C)C1 (stereo not given) + CN1CCN(c2cc(C(=O)Nc3cc4cc(-c5cnn(C)c5)ccc4cn3)ccn2)CC1	0.25
CC1(C)CCC(CN2CCN(c3ccc(C(=O)NS(=O)(=O)c4ccc(NCC5CCOCC5)c([N+](=O)[O-])c4)c(Oc4cnc5[nH]ccc5c4)c3)CC2)=C(c2ccc(Cl)cc2)C1 + CNC(=O)c1ccc(Nc2nc(OC3CCCC3)c3c(-c4ccc5nc(C)oc5c4)c[nH]c3n2)c(OC)c1	39.9
O=c1[nH]cc(F)c(=O)[nH]1 + CN1CCN(c2cc(C(=O)Nc3cc4cc(-c5cnn(C)c5)ccc4cn3)ccn2)CC1	0.76
CC(CO)NC(=O)c1cc(-c2ccc(Cl)cc2)nn(-c2cnn(C)c2)c1=O (stereo not given) + CNC(=O)c1ccc(Nc2nc(OC3CCCC3)c3c(-c4ccc5nc(C)oc5c4)c[nH]c3n2)c(OC)c1	35.8
O=c1[nH]cc(F)c(=O)[nH]1 + CNC(=O)c1ccc(Nc2nc(OC3CCCC3)c3c(-c4ccc5nc(C)oc5c4)c[nH]c3n2)c(OC)c1	41.2
